# experimental_target: Gal(b1-3)GlcNAc(b1-3)GalNAc
# method_notes: glycan array binding signal (z-score within array); higher = stronger binding
# conditions: glycan notation: IUPAC condensed, linker removed
The entries come from a sample that favours the strongest signals as a whole.

{"binder": "Pbx2CASH domain (Cryptococcus neoformans) (protein) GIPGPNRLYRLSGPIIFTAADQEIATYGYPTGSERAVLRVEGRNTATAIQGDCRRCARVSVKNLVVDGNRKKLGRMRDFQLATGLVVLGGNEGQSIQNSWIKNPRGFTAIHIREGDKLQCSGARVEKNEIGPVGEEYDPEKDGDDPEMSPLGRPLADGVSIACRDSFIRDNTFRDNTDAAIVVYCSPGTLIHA", "glycan array binding signal (z-score)": 0.422}
{"binder": "LecB PA7 (Pseudomonas aeruginosa) (protein) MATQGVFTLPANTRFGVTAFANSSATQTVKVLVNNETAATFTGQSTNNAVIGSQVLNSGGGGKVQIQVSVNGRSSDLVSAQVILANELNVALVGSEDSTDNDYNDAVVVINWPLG", "glycan array binding signal (z-score)": -0.499}
{"binder": "PNGase F (Flavobacterium meningosepticum) (protein) GIPAPADNTVNIKTFDKVKNAFGDGLSQSAEGTFTFPADVTAVKTIKMFIKNECPNKTCDEWDRYANVYVKNKTTGEWYEIGRFITPYWVGTEKLPRGLEIDVTDFKSLLSGNTELKIYTETWLAKGREYSVDFDIVYGTPDYKYSAVVPVVQYNKSSIDGVPYGKAHTLALKKNIQLPTNTEKAYLRTTISGWGHAKPYDAGSRGCAEWCFRTHTIAINNSNTFQHQLGALGCSANPINNQSPGNWTPDRAGWCPGMAVPTRIDVLNNSLIGSTFSYEYKFQNWTNNGTNGDAFYAISSFVIAKSNTPISAPVVTNLDPHHHHHH", "glycan array binding signal (z-score)": -0.268}
